Please provide measured gcPBM binding intensity (ln) for the entries that follow.
# Test system: PfAP2-LT AP2 domain (GST-tagged)
# PROCEDURE TEXT: gcPBM binding intensity (ln(normalized median fluorescence intensity)); higher = stronger DNA binding
The full ranking holds about 25,000 sequences; the median of “ln(normalized median fluorescence intensity)” is about 8.9, and the highest 2% start at about 10. The full list was thinned out, with the highest values kept by preference.
Lab note: record the figure alone, no unit after it.

[Q] Quick one: give measured gcPBM binding intensity (ln) for AGGCACACAAACATATGTACACATATATATATATAT [XGTACX_site4723]
[A] 10.2

[Q] Quick one: give measured gcPBM binding intensity (ln) for TGCAACAAAATAAACACACACACACTAACACAAAAA [CACACA_site7567]
[A] 9.98

[Q] Quick one: give measured gcPBM binding intensity (ln) for CACAGACACGGACACACACACACACCCATATATATA [CACACA_site4354]
[A] 10.1

[Q] Quick one: give measured gcPBM binding intensity (ln) for AAAAAACAATTTGTGTGTACACATGATACGTTCGAT [XGTACX_site4112]
[A] 9.39

[Q] Quick one: give measured gcPBM binding intensity (ln) for TACACAGACGGACACACACACACACTAGAAAAAAAA [CACACA_site4435]
[A] 10.1

[Q] Quick one: give measured gcPBM binding intensity (ln) for CACAAACAAAAACACACACACACACCCACAAAAATG [CACACA_site2429]
[A] 10.2

[Q] Quick one: give measured gcPBM binding intensity (ln) for GGAACGTTCATATTTCCACACACAAAAAATAAATAT [CACACA_site9101]
[A] 9.31

[Q] Quick one: give measured gcPBM binding intensity (ln) for TTCATTTTTTAAGCATCACACACGAAAGAACAAAGT [CACACA_site1122]
[A] 8.98

[Q] Quick one: give measured gcPBM binding intensity (ln) for ATGTAGACTGAAACCACACACACATATATATATATA [CACACA_site606]
[A] 10.2

[Q] Quick one: give measured gcPBM binding intensity (ln) for ACTTGACACGGACACACACACATATATAAAAAAAAA [CACACA_site4576]
[A] 9.53

[Q] Quick one: give measured gcPBM binding intensity (ln) for CACACGCACGGACACACACACATATAAAATCTATAT [CACACA_site6428]
[A] 9.85

[Q] Quick one: give measured gcPBM binding intensity (ln) for ATTTTCTATTTTATTTGTACGTAATTTAATTTTTTT [XGTACX_site3609]
[A] 8.96

[Q] Quick one: give measured gcPBM binding intensity (ln) for GTAGACTGAAACCACACACACATATATATATATATT [CACACA_site605]
[A] 9.8

[Q] Quick one: give measured gcPBM binding intensity (ln) for AATGTACCCACACCCACACACAAACAAATATATATA [CACACA_site2751]
[A] 9.74

[Q] Quick one: give measured gcPBM binding intensity (ln) for ATAAAACCAACATAGAGTACAGATCGACTATGTTTC [XGTACX_site4329]
[A] 9.05

[Q] Quick one: give measured gcPBM binding intensity (ln) for AAAAAATATATATCACGTGGTAATATATATATATAT [XGTACX_negctrl_site252]
[A] 9.16

[Q] Quick one: give measured gcPBM binding intensity (ln) for AAAAAAAAAAAACACACACACACACCCACAAAATAT [CACACA_site1447]
[A] 10.3

[Q] Quick one: give measured gcPBM binding intensity (ln) for ATAATATTGTGGTATACACACCTTACAAAAAGGTAC [CACACA_site5582]
[A] 8.96

[Q] Quick one: give measured gcPBM binding intensity (ln) for GTAGACTGAAACCACACACACATATATAAATATATT [CACACA_site6433]
[A] 9.68

[Q] Quick one: give measured gcPBM binding intensity (ln) for ATTATTTTTTTTGAAGTGCAATATTATTTTTAATCA
[A] 8.46

[Q] Quick one: give measured gcPBM binding intensity (ln) for AAAACACAAAAAAAATGTACACATATATATATATAT [XGTACX_site8509]
[A] 9.84

[Q] Quick one: give measured gcPBM binding intensity (ln) for CAACATATGCATATGTGTACATATTTTATTTTCAAC [XGTACX_site2237]
[A] 8.82

[Q] Quick one: give measured gcPBM binding intensity (ln) for TGCAACAAAATAAACACACACACACCCCCACAAAAA [CACACA_site3388]
[A] 10.4

[Q] Quick one: give measured gcPBM binding intensity (ln) for TATAAATATACAAACACACATACAAACATATATATA [CACACA_site1120]
[A] 9.24

[Q] Quick one: give measured gcPBM binding intensity (ln) for TATACGCATATATAAACACACAAAAAAAAAAAAAAA [CACACA_site2026]
[A] 8.86

[Q] Quick one: give measured gcPBM binding intensity (ln) for CATACATATAAACACACACACACACCCACCCACAAA [CACACA_site8059]
[A] 10.4

[Q] Quick one: give measured gcPBM binding intensity (ln) for CACGCGCCCGGACACACACACACACCCATATATATA [CACACA_site5251]
[A] 10.2

[Q] Quick one: give measured gcPBM binding intensity (ln) for ATATTAGTCGAATGATGTACACACATACAAAACATT [XGTACX_site8613]
[A] 9.28

[Q] Quick one: give measured gcPBM binding intensity (ln) for AGCACACCCACAAAAACACACACAAAGGTGTTCTTA [CACACA_site8355]
[A] 9.39

[Q] Quick one: give measured gcPBM binding intensity (ln) for TAAAATATATATATGTGTACATAACATATAATTTTT [XGTACX_site1725]
[A] 8.6

[Q] Quick one: give measured gcPBM binding intensity (ln) for CATACATACAAACACACACACATATATATATATATA [CACACA_site43]
[A] 10.2

[Q] Quick one: give measured gcPBM binding intensity (ln) for TCTTTGAATTTTTTAACACACACATGGGTGGATATA [CACACA_site8474]
[A] 9.04

[Q] Quick one: give measured gcPBM binding intensity (ln) for TGCCTTATTAAAAGAATTACACATATTTAATCGAAA [GTGCAC_negctrl_site153]
[A] 8.31

[Q] Quick one: give measured gcPBM binding intensity (ln) for ACCCTATAGGTAACTACACACCGCATATTGTTTACT [CACACA_site7436]
[A] 9.15

[Q] Quick one: give measured gcPBM binding intensity (ln) for AAAAAAATAAAACACACACACAAAAAAATAAAAATA [CACACA_site465]
[A] 9.56

[Q] Quick one: give measured gcPBM binding intensity (ln) for GTAAAAAAAGAGCACACACACAAAAACACCCACAAA [CACACA_site1292]
[A] 10.3

[Q] Quick one: give measured gcPBM binding intensity (ln) for AAAAAAGTAAAAAGTGCATGTAAAATATAAGTATCT [TGCATGCA_site55]
[A] 9.18

[Q] Quick one: give measured gcPBM binding intensity (ln) for TTTATATATAAATAATGTACAAAAAATTTTAAAAAG [XGTACX_site7990]
[A] 8.39

[Q] Quick one: give measured gcPBM binding intensity (ln) for TATATATATATATATGTGCGCATTACTTTAAGAATA
[A] 9.6
